// read-out Ki, gathered for Oxytocin receptor (Homo sapiens) from published studies
quantity kind: Ki (nM)

Some entries whose results are on file:
>>> reading("Cc1ccc(C(=O)N2Cc3cnn(C)c3Nc3ccccc32)cc1C")
117
>>> reading("COc1ccccc1CNC(=O)CCCCc1nnc(SCc2cccc(Cl)c2)n1-c1cccc(Cl)c1")
481
>>> reading("COc1cccc(-n2c(CCC(=O)NCc3ccccc3OC)nnc2SCc2cccc(C)c2)c1")
197
>>> reading("COc1ccccc1CNC(=O)CCc1nnc(SCc2ccc(F)cc2)n1-c1cccc(Cl)c1")
329
>>> reading("COc1ccccc1CNC(=O)CCc1nnc(SCc2cccc(F)c2)n1-c1ccc(C)cc1")
127

[I] COc1cccc(C(C(N)=O)N(Cc2ccc(C)cc2)C(=O)c2c(C)cc(C)nc2N)c1 (single isomer, unassigned)
[II] CCCCNC(=O)CCc1nnc(SCc2cccc(Cl)c2)n1-c1cccc(Cl)c1
[III] Cn1ncc2c1Nc1ccccc1N(C(=O)c1cc(O)cc(O)c1)C2
[IV] COc1ccccc1CNC(=O)CCCCc1nnc(SCc2cccc(Cl)c2)n1-c1ccccc1
Prompt: Sort the molecules on Ki; start with the lowest figure. Please list the labels according to the requested order.
Completion: I, III, II, IV
